assayedTarget: His-tagged recombinant human Gal-3 (hGal-3) (Homo sapiens (Human), UniProt P17931)
Sequence (P17931 whole entry): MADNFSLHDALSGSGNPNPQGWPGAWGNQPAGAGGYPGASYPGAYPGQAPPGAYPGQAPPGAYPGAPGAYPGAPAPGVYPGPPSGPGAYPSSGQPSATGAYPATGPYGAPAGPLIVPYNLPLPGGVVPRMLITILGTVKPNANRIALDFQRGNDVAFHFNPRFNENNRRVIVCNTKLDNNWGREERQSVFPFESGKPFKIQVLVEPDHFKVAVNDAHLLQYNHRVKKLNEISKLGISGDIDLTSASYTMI
testSummary: Gal-3 HTRF assay (His-tagged hGal-3 binding to B-ASF)
testContext: HTRF, hGal-3 15 nM, B-ASF 15 nM; read-out: hGal-3 IC50
endpointLabel: pIC50
One number for each entry, as −log10 of the molar value.

Take a look at these entries with their results.
- OC[C@H]1O[C@@H](c2nncn2-c2ccc3c(c2)OCCO3)[C@H](O)[C@@H](n2cc(-c3cc(F)c(F)c(F)c3)nn2)[C@H]1O: 6.54
- CC(C)(C)c1cnnn1[C@@H]1O[C@H](CO)[C@H](O)[C@H](n2cc(-c3cc(F)c(F)c(F)c3)nn2)[C@H]1O: 6.44
- COc1cccc(-c2cnnn2[C@H]2C[C@@H](n3cc(-c4cc(F)c(F)c(F)c4)nn3)[C@@H](O)[C@@H](CO)O2)c1: 6.22
- Cc1nc([C@@H]2O[C@H](CO)[C@H](O)[C@H](n3cc(-c4ccc(Cl)c(F)c4)nn3)[C@H]2O)n(-c2cccc(Cl)c2)n1: 7.10

Pending molecule:
Q. So what's the measured pIC50 for this one? `CO[C@@H]1[C@@H](n2cc(-c3cc(F)c(F)c(F)c3)nn2)[C@@H](O)[C@@H](CO)O[C@H]1c1ncnn1-c1ccc(Cl)c(Cl)c1`
A. 6.74

----------
assayedTarget: His-tagged recombinant human Gal-3 (hGal-3) (Homo sapiens (Human), UniProt P17931)
testSummary: Gal-3 HTRF assay (His-tagged hGal-3 binding to B-ASF);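 note: compounds preincubated 30 min with hGal-3, then 1 h with B-ASF, detection via terbium anti-His antibody and streptavidin d2. Control with B-ASF counts as full signal, omitting B-ASF as background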
testContext: HTRF, hGal-3 15 nM, B-ASF 15 nM; read-out: hGal-3 IC50
I'd appreciate it if you could supply IC50 values for the items below.
Give bare numbers, in nM.

Take a look at these entries with their results.
• OC[C@H]1O[C@@H](c2ncnn2-c2ccc3nc(N4CCOCC4)sc3c2)[C@H](O)[C@@H](n2cc(-c3cc(F)c(F)c(F)c3)nn2)[C@H]1O = 120
• OC[C@H]1O[C@@H](c2nncn2-c2ccc3ncsc3c2)[C@H](O)[C@@H](n2cc(-c3cc(F)c(F)c(F)c3)nn2)[C@H]1O = 30
• Cc1nc2ccc(-n3cnnc3[C@@H]3O[C@H](CO)[C@H](O)[C@H](n4cc(-c5cc(F)c(F)c(F)c5)nn4)[C@H]3O)cc2s1 = 20

Pending molecule:
Q. So what's the measured IC50 for this one? `Cc1nc2ccc(-n3ncnc3[C@@H]3O[C@H](CO)[C@H](O)[C@H](n4cc(C(=O)NC5CCCC5)nn4)[C@H]3O)cc2s1`
A. 1320

----------
assayedTarget: His-tagged recombinant human Gal-3 (hGal-3) (Homo sapiens (Human))
testSummary: Gal-3 HTRF assay (His-tagged hGal-3 binding to B-ASF)
testContext: HTRF, hGal-3 15 nM, B-ASF 15 nM; read-out: hGal-3 IC50
I'd appreciate it if you could supply pIC50 values for the items below.
One number for each entry, as −log10 of the molar value.

Take a look at these entries with their results.
• Cc1nc2cc(F)c(-n3cnnc3[C@@H]3O[C@H](CO)[C@H](O)[C@H](n4cc(-c5cc(F)c(F)c(F)c5)nn4)[C@H]3O)cc2s1 [Example 137] = 7.10
• COc1ccccc1-n1cnnc1[C@@H]1O[C@H](CO)[C@H](O)[C@H](n2cc(-c3cc(F)c(F)c(F)c3)nn2)[C@H]1O [Example 86] = 6.42
• Cc1nc([C@@H]2O[C@H](CO)[C@H](O)[C@H](n3cc(-c4cccc(F)c4)nn3)[C@H]2O)oc1CO [Example 300] = 5.03
• OC[C@H]1O[C@@H](c2nncn2-c2ccc(Cl)c(Cl)c2)[C@H](O)[C@@H](n2cc(-c3cc(F)c(F)c(F)c3)nn2)[C@H]1O [Example 131] = 7.00

Q. So what's the measured pIC50 for this one? Cc1nc([C@@H]2O[C@H](CO)[C@H](O)[C@H](n3cc(-c4cc(F)c(F)c(F)c4)nn3)[C@H]2O)n(-c2ccc3ncn(C)c3c2)n1 [Example 59]
A. 6.85
